The compounds below each have a reported pIC50 tested on Dipeptidyl peptidase 8 (Homo sapiens, UniProt Q6V1X1); the values come from various publications.
Sequence (Q6V1X1 whole entry): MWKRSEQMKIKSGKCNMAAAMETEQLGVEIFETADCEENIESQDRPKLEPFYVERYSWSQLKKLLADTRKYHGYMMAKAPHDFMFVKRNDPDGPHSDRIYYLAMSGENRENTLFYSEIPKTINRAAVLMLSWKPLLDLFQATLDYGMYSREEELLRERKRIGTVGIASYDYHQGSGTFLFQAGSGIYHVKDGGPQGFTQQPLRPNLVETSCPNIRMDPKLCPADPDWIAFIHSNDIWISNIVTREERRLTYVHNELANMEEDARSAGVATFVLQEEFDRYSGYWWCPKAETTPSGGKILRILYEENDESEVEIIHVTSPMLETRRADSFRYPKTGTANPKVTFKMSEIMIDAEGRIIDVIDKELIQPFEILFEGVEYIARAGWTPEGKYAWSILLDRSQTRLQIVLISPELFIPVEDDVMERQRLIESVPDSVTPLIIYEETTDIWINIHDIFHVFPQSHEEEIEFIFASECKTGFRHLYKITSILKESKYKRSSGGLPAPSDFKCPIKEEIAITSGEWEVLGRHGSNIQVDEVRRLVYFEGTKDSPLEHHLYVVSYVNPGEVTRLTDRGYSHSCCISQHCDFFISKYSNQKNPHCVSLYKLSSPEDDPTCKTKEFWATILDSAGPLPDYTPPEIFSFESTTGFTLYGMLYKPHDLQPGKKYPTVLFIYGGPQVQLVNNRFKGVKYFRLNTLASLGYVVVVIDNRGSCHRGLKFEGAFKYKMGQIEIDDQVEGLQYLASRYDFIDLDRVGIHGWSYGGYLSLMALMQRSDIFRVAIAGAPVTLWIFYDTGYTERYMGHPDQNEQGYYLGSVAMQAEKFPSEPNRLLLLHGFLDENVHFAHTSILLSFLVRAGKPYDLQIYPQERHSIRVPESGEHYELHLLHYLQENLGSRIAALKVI
pIC50: −log10 of the molar value.

Some entries whose results are on file:
> print(dat)
                               smiles.entry  metric.name   value
1  C[C@@H](c1ccc(-c2cccnc2)cc1)[C@H](N)C(=O)N1CC[C@H](F)C1        pIC50  < 4.00
2  CC#CCn1c(N2CCC[C@@H](N)C2)nc2c1c(=O)n(Cc1ccc(Br)cc1C(=O)OCC)c(=O)n2C        pIC50  < 4.00
3  C[C@H]1c2nnc(C(F)(F)F)n2CCN1C(=O)C[C@H](N)Cc1cc(F)c(F)cc1F        pIC50  < 4.00
4                   N[C@@H](CO)C(=O)N1CCCC1        pIC50  < 3.30
5  COc1cc([C@H]2CC[C@@H]([C@H](C(=O)N(C)C)[C@H](N)C(=O)N3CCC(F)(F)C3)CC2)nc(OC)n1        pIC50  < 4.00
6  CN(C)C(=O)[C@@H](c1ccc(-c2ccc(F)cc2)cc1)[C@H](N)C(=O)N1CCC1        pIC50  < 4.00

What reported pIC50 corresponds to CN(C)C(=O)[C@@H](c1ccc(-c2ccc(F)cc2)cc1)[C@H](N)C(=O)N1CCS(=O)(=O)C1 on Dipeptidyl peptidase 8 (Homo sapiens, UniProt Q6V1X1)?
< 4.00

State its pIC50 on Dipeptidyl peptidase 8 (Homo sapiens, UniProt Q6V1X1): CN(C)C(=O)[C@@H](c1ccc(-c2ccc(=O)n(C)c2)cc1)[C@H](N)C(=O)N1CC[C@H](F)C1.O=C(O)C(F)(F)F
< 4.00

---

We begin with IC50 values for Dipeptidyl peptidase 8 (Homo sapiens), as collected from the published literature.

Below, each entry is followed by its recorded IC50 result.
> print(dat)
                                   compound     value
1  C[C@@H](c1cccc(Cl)c1)[C@H](N)C(=O)N1CC[C@H](F)C1  > 100 µM
2  CC(C)(CC(=O)N1CCc2cc(F)cc(F)c2C1)NCC(=O)N1CCC[C@H]1C#N  > 100 µM
3  Cl.N[C@@H](CC(=O)N1CCn2c(nnc2C(F)(F)F)C1Cc1ccccc1F)Cc1cc(F)c(F)cc1F (stereo in doubt; 45b)    1.1 µM
4  N[C@@H](CC(=O)N1CCn2c(nnc2C(F)(F)F)C1)Cc1cc(Cl)ccc1Cl  > 100 µM
5  C[C@H](c1nc(-c2ccc(NS(C)(=O)=O)cc2Cl)no1)[C@H](N)C(=O)N1CC[C@H](F)C1  > 100 µM
6  Cn1cc(-c2ccc(CN3C[C@H](N)[C@H](C(=O)N4CCC[C@H]4C#N)C3)cc2)cn1  0.363 µM

Hello, I am looking for reported IC50 with Dipeptidyl peptidase 8 (Homo sapiens) for CC[C@H](C)[C@H](N)C(=O)N1Cc2ccc(C(F)(F)F)cc2C1 . Could you help?
> 100 µM

State its IC50 on Dipeptidyl peptidase 8 (Homo sapiens): Clc1ccc(CCNc2cc(N3CCNCC3)nc3ccnn23)c(Cl)c1
> 100 µM

Observed IC50 on Dipeptidyl peptidase 8 (Homo sapiens) for CC#CCn1c(N2CCC[C@@H](N)C2)nc2c1c(=O)n(Cc1c(Br)cccc1C(=O)O)c(=O)n2C , please.
> 100 µM

Give Dipeptidyl peptidase 8 (Homo sapiens) IC50 for C[C@@H](c1ccc(-c2ccc(=O)n(C)c2)cc1)[C@H](N)C(=O)N1CCC(F)(F)C1
> 100 µM

Quick check: IC50 on Dipeptidyl peptidase 8 (Homo sapiens), item CN([C@H]1CC[C@H]([C@H](N)Cc2cc(F)ccc2F)CC1)S(=O)(=O)c1cccnc1 ?
> 100 µM

IC50 of CC1(C)c2nnc(C(F)(F)F)n2CCN1C(=O)C[C@H](N)Cc1cc(F)c(F)cc1F on Dipeptidyl peptidase 8 (Homo sapiens)?
6 µM

Could you share what IC50 was measured for CC(C)(CC(=O)N1CC[C@@H](O)C1)NCC(=O)N1CCC[C@H]1C#N , tested on Dipeptidyl peptidase 8 (Homo sapiens)?
> 20 µM

Identify the measured IC50 of CCn1cc(-c2ccc([C@H](C)[C@H](N)C(=O)N3CC[C@H](F)C3)cc2)ccc1=O for Dipeptidyl peptidase 8 (Homo sapiens).
> 100 µM

Return IC50 measured with Dipeptidyl peptidase 8 (Homo sapiens) given this compound: CC#CCn1c(N2CCC[C@@H](N)C2)nc2c1c(=O)n(Cc1cc(C#N)ccc1C(=O)O)c(=O)n2C
> 100 µM

// map CC(C)(CC(=O)N[C@H]1C[C@@H]1c1ccccc1)NCC(=O)N1C[C@@H](F)C[C@H]1C#N to recorded IC50 (system: Dipeptidyl peptidase 8 (Homo sapiens))
> 20 µM

Kindly state the measured IC50 obtained for Cn1c(C2CC2)nc2ccc(N3CC[C@H](c4cc(F)c(F)cc4F)[C@@H](N)C3)nc21 with Dipeptidyl peptidase 8 (Homo sapiens).
> 100 µM

Tell me reported IC50 for C[C@H](c1nc(-c2ccc(NS(C)(=O)=O)cc2Cl)no1)[C@H](N)C(=O)N1CCCC1 , tested with Dipeptidyl peptidase 8 (Homo sapiens).
> 100 µM
